- STUDY_SYSTEM: Tyrosine-protein kinase Lyn (Homo sapiens, UniProt P07948)
- Sequence (P07948 whole entry): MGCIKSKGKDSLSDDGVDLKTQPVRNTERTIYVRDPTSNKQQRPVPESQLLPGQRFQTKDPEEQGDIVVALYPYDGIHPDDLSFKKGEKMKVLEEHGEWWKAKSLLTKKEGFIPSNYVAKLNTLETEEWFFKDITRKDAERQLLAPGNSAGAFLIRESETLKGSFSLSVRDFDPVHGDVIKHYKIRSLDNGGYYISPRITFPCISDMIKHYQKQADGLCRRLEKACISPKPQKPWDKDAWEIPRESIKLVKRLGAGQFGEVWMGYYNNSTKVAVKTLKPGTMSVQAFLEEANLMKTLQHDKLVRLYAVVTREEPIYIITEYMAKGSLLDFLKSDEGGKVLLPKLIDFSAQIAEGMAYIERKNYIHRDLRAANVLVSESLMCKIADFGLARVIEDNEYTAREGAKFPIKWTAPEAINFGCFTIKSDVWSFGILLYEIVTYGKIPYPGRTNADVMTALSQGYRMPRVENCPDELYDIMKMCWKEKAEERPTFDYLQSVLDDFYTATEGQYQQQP
pIC50: −log10 of the molar value.
MEASURED_METRIC: pIC50

## Task Form field: reported pIC50 of `CN1CCN(c2ccc(OC(F)(F)F)c(Nc3ncc4c(n3)-c3c(c(C(N)=O)nn3CCO)CC4)c2)CC1`
## Result < 5.00

---

- ASSAY_INFO: Inhibition of AUR1 (unknown origin) in presence of [gamma-33P]ATP
- Parameters: species or system Homo sapiens
pIC50: −log10 of the molar value.
MEASURED_METRIC: pIC50

## Task Form field: reported pIC50 of `CN1CCN(c2ccc(OC(F)(F)F)c(Nc3ncc4c(n3)-c3c(c(C(N)=O)nn3CCO)CC4)c2)CC1`
## Result < 5.00

---

- STUDY_SYSTEM: Vascular endothelial growth factor receptor 2 (Homo sapiens, UniProt P35968)
- Sequence (P35968 whole entry): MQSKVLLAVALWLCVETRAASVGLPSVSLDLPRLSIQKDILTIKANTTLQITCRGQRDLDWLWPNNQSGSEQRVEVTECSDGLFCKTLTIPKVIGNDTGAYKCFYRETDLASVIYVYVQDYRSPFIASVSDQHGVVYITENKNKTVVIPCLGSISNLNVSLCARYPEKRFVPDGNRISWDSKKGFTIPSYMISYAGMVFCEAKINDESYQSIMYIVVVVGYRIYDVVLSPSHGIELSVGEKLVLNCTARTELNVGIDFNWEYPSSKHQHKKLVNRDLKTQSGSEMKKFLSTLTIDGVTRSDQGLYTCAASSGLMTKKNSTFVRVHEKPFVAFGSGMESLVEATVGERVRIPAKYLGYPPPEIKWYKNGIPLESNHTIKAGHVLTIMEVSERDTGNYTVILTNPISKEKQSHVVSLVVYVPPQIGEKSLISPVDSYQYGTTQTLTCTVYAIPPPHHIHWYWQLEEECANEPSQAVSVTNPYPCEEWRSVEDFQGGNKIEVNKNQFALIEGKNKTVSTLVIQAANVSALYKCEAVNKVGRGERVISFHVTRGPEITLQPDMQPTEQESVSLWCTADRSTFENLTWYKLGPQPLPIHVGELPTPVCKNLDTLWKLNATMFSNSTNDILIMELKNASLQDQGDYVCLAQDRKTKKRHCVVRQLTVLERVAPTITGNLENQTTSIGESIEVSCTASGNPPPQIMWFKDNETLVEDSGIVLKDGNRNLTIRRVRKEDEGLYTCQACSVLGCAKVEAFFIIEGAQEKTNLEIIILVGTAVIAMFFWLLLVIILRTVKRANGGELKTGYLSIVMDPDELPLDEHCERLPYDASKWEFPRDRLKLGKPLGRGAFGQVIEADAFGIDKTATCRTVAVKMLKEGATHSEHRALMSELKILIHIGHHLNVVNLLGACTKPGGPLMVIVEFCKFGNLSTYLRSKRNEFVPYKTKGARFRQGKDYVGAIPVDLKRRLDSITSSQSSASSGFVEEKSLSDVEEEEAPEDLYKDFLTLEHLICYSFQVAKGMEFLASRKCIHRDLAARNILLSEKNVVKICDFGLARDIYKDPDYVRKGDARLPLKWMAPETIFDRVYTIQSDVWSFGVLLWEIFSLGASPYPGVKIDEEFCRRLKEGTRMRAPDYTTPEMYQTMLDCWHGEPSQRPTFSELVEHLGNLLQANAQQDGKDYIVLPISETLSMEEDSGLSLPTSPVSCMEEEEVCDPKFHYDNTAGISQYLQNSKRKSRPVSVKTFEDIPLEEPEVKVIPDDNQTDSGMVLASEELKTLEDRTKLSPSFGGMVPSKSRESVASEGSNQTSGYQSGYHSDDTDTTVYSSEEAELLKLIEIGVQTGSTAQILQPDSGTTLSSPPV
pIC50: −log10 of the molar value.
MEASURED_METRIC: pIC50

## Task Form field: reported pIC50 of `CN1CCN(c2ccc(OC(F)(F)F)c(Nc3ncc4c(n3)-c3c(c(C(N)=O)nn3CCO)CC4)c2)CC1`
## Result < 5.00

---

- ASSAY_INFO: Clearance in nu/nu mouse at 10 mg/kg, iv by LC-MS analysis
- Format: ADME, organism-based
- TEST_PARAMETERS: in vivo
MEASURED_METRIC: clearance (L/h/kg)
One number for each entry, in L/h/kg.

## Task Form field: reported clearance of `CN1CCN(c2ccc(OC(F)(F)F)c(Nc3ncc4c(n3)-c3c(c(C(N)=O)nn3CCO)CC4)c2)CC1`
## Result 2.36

---

- Test system: CAKI-1
- ASSAY_INFO: Antiproliferative activity against human CAKI-1 cells assessed as inhibition of cell growth incubated for 72 hrs by cell-titer glo assay
- Type: functional, cell-based
- TEST_PARAMETERS: CAKI-1, 72 h
MEASURED_METRIC: pIC50
Give bare numbers, as −log10 of the molar value.

## Task Can you look up pIC50 on CAKI-1 for CN1CCN(c2ccc(OC(F)(F)F)c(Nc3ncc4c(n3)-c3c(c(C(N)=O)nn3CCO)CC4)c2)CC1 [ONVANSERTIB] ?
## Result 6.29

---

- Tested on: CCRF-CEM
- ASSAY_INFO: Antiproliferative activity against human CCRF-CEM cells assessed as inhibition of cell growth incubated for 72 hrs by cell-titer glo assay
- Format: functional, cell-based
MEASURED_METRIC: pIC50
Numbers only, as −log10 of the molar value.

## Task Form field: reported pIC50 of CN1CCN(c2ccc(OC(F)(F)F)c(Nc3ncc4c(n3)-c3c(c(C(N)=O)nn3CCO)CC4)c2)CC1 [ONVANSERTIB]
## Result 7.26

---

- System: BT-474
- ASSAY_INFO: Antiproliferative activity against human BT-474 cells assessed as inhibition of cell growth incubated for 72 hrs by cell-titer glo assay
- Format: functional, cell-based
- TEST_PARAMETERS: BT-474, 72 h
MEASURED_METRIC: IC50 (nM)
One number for each entry, in nM.

## Task Form field: reported IC50 of `CN1CCN(c2ccc(OC(F)(F)F)c(Nc3ncc4c(n3)-c3c(c(C(N)=O)nn3CCO)CC4)c2)CC1`
## Result 156

---

- STUDY_SYSTEM: Protein-tyrosine kinase 6 (Homo sapiens, UniProt Q13882)
- Sequence (Q13882 whole entry): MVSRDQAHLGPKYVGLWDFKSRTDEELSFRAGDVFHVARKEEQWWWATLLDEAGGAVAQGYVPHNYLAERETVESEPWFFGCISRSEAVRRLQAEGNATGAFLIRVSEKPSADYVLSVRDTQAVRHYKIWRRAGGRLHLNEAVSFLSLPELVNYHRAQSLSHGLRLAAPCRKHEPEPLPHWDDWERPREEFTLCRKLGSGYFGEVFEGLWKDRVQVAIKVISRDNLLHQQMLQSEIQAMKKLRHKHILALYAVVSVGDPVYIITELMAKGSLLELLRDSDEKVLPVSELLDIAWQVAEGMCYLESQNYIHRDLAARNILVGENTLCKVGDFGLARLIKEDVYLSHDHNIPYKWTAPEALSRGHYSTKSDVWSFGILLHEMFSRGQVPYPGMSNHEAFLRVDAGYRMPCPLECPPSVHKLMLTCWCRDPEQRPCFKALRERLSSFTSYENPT
- ASSAY_INFO: Inhibition of BRK (unknown origin) in presence of [gamma-33P]ATP
pIC50: −log10 of the molar value.
MEASURED_METRIC: pIC50

## Task Form field: reported pIC50 of CN1CCN(c2ccc(OC(F)(F)F)c(Nc3ncc4c(n3)-c3c(c(C(N)=O)nn3CCO)CC4)c2)CC1 [ONVANSERTIB]
## Result < 5.00

---

- ASSAY_INFO: Tmax in Sprague-Dawley rat at 10 mg/kg, po by LC-MS analysis
- Format: ADME, organism-based
- TEST_PARAMETERS: in vivo
MEASURED_METRIC: Tmax (h)
Answers are plain numbers, in h.

## Task Form field: reported Tmax of `CN1CCN(c2ccc(OC(F)(F)F)c(Nc3ncc4c(n3)-c3c(c(C(N)=O)nn3CCO)CC4)c2)CC1`
## Result 3

---

- Tested on: Hs-578T
- ASSAY_INFO: Antiproliferative activity against human Hs-578T cells assessed as inhibition of cell growth incubated for 72 hrs by cell-titer glo assay
- Format: functional, cell-based
MEASURED_METRIC: pIC50
Give bare numbers, as −log10 of the molar value.

## Task Can you look up pIC50 on Hs-578T for `CN1CCN(c2ccc(OC(F)(F)F)c(Nc3ncc4c(n3)-c3c(c(C(N)=O)nn3CCO)CC4)c2)CC1` ?
## Result 6.60
